Target: T1, 4H310-AA
T1 chain: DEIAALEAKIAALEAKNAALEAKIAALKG
Test: two-hybrid library CCmax;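 also: natural log of median RNA to DNA barcode read ratio; higher means stronger binding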
Details: mean of both orientations
So basically: is interaction score under -0.6? Then True. Not under? Then False.

Prompt line: Please let me know if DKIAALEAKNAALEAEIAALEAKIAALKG [4H2438-AA] shows interaction score below -0.6.
Response line: False

Prompt line: Please let me know if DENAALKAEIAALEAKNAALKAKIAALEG [4H1597-AA] shows interaction score below -0.6.
Response line: False

Prompt line: Please let me know if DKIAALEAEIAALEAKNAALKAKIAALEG [4H2109-AA] shows interaction score below -0.6.
Response line: False

Prompt line: Please let me know if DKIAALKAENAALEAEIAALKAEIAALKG [4H2698-AA] shows interaction score below -0.6.
Response line: False

Prompt line: Please let me know if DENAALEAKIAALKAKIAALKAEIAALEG [4H1385-AA] shows interaction score below -0.6.
Response line: False

Prompt line: Please let me know if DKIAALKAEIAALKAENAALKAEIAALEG [4H2649-AA] shows interaction score below -0.6.
Response line: False

Prompt line: Please let me know if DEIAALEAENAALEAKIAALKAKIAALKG [4H174-AA] shows interaction score below -0.6.
Response line: False

Prompt line: Please let me know if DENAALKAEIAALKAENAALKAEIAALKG [4H1626-AA] shows interaction score below -0.6.
Response line: True

Prompt line: Please let me know if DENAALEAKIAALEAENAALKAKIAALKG [4H1310-AA] shows interaction score below -0.6.
Response line: True
